Test System: Human VAP-1 (Homo sapiens)
Sequence (Q16853 whole entry): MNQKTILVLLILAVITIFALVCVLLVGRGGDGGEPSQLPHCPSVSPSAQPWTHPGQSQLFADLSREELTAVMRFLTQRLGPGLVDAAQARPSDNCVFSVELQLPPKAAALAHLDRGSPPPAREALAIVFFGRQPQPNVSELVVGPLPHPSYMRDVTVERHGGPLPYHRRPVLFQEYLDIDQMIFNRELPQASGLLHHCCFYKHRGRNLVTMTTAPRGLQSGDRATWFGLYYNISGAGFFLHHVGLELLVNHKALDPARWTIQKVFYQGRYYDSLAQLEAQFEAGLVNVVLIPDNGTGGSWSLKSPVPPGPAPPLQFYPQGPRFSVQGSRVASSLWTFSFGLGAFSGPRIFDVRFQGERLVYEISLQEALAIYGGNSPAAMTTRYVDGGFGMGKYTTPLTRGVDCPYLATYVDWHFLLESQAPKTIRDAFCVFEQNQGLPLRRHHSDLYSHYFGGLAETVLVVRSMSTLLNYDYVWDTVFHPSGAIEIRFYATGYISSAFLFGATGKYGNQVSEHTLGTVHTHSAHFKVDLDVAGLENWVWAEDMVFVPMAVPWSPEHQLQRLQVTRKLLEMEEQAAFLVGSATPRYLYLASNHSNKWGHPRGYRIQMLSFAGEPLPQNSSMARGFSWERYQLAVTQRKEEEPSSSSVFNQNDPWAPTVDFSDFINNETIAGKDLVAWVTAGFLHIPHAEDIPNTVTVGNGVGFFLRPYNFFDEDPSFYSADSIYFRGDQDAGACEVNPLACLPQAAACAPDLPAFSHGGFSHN
Method Notes: VAP-1 inhibition assay (Amplex Red continuous fluorescence assay)
Assay type: biochemical
Assay Conditions: 30 min pre-incubation at 37° C.; substrate benzylamine; read-out: Human VAP-1 IC50
Counter-ions that a name gives are not always drawn.
Overview of reported IC50 across a group of compounds:

Completed entries (count: 3):
Compound	Test System	IC50
Cn1nccc1-c1ccc(OC/C(=C\F)CN)cc1 [Compound 49, hydrochloride]	Human VAP-1 (Homo sapiens)	< 3 µM
NC/C(=C\F)COc1cccc2scnc12 [Compound 8, hydrochloride]	Human VAP-1 (Homo sapiens)	< 3 µM
NC/C(=C/F)COc1ccc(-c2ncc[nH]2)cc1	Human VAP-1 (Homo sapiens)	< 3 µM

Find IC50 (Human VAP-1 (Homo sapiens)) for the entry NC/C(=C\F)COc1ccc(C(=O)NCCOCCOCCOCCOCCOCCOCCOCCOCCOCCOCCOCCNC(=O)CCCCC2SCC3NC(=O)NC32)cc1 (stereo not shown)
< 3 µM

###

Test System: Human MAO-A (Homo sapiens)
Method Notes: MAO-A inhibition (Amplex Red continuous fluorescence assay)
Format: biochemical
Assay Conditions: 30 min pre-incubation at room temp; substrate tyramine; read-out: Human MAO-A IC50
pIC50: −log10 of the molar value. Counter-ions that a name gives are not always drawn.
Overview of reported pIC50 across a group of compounds:

Completed entries (count: 5):
Compound	pIC50
NC/C(=C\F)COCc1cccs1	> 5.52
NC/C(=C\F)COC(=O)Nc1ccccc1	5.00 to 5.52
CO[C@H]1CCN(c2ncc(OC/C(=C/F)CN)cn2)C1	< 5.00
NC/C(=C/F)CNC(=O)Nc1ccccc1	> 5.52
NCC(=CF)COc1ccc(-c2cnn[nH]2)cc1	> 5.52

Find pIC50 (Human MAO-A (Homo sapiens)) for the entry NC/C(=C/F)COc1ccc(-c2nnn[nH]2)cc1 [Compound 52, hydrochloride]
< 5.00

Find pIC50 (Human MAO-A (Homo sapiens)) for the entry NC/C(=C/F)COc1ccc(-c2ncon2)cc1 [Compound 44, HYDROCHLORIDE]
> 5.52

Find pIC50 (Human MAO-A (Homo sapiens)) for the entry "CCNC(=O)N(C)c1ccc(NC/C(=C/F)CN)cc1"
< 5.00

Find pIC50 (Human MAO-A (Homo sapiens)) for the entry CC(C)NC(=O)Nc1ccc(OC/C(=C/F)CN)cc1 [Compound 18, hydrochloride]
> 5.52

Find pIC50 (Human MAO-A (Homo sapiens)) for the entry Cn1ccc(-c2ccc(OC/C(=C/F)CN)cc2)n1 [Compound 50, hydrochloride]
5.00 to 5.52

###

Test System: Human MAO-B (Homo sapiens)
Sequence (P27338 1-520): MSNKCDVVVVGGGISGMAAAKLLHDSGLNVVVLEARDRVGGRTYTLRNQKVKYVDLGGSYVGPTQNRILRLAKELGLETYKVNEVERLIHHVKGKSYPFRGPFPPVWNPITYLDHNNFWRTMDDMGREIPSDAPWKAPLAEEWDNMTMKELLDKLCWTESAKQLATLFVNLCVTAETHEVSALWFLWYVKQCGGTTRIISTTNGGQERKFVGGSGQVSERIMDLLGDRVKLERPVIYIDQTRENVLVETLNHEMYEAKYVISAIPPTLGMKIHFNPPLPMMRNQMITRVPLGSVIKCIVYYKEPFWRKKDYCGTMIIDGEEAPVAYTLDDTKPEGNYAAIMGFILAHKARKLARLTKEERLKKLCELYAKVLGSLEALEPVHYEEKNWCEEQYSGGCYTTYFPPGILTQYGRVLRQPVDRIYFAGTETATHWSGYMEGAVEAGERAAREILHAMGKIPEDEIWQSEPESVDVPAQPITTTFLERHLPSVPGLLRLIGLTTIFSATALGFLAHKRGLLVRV
Method Notes: MAO-B inhibition (Amplex Red continuous fluorescence assay)
Format: biochemical
Structures can show the parent of a compound that is named as a salt.
Measurement Name: IC50

Which value of IC50 has been reported for NC/C(=C\F)CNC(=O)Oc1ccccc1 [Compound 47, hydrochloride] in the records?
> 10 µM

###

Test System: Human MAO-A (Homo sapiens)
Method Notes: MAO-A inhibition (Amplex Red continuous fluorescence assay)
Assay type: biochemical
Assay Conditions: 30 min pre-incubation at room temp; substrate tyramine; read-out: Human MAO-A IC50
pIC50: −log10 of the molar value. Counter-ions that a name gives are not always drawn.
Measurement Name: pIC50

Completed entries (count: 5):
Compound	pIC50
NC/C(=C/F)COc1ccc(-c2ncc[nH]2)cc1 [Compound 63]	< 5.00
CCC(=O)Nc1ccc(OC/C(=C/F)CN)cc1 [Compound 82]	5.00 to 5.52
NC/C(=C\F)COc1ccc(C(=O)NCCOCCOCCOCCNC(=O)CCCCC2SCC3NC(=O)NC32)cc1 (stereo not drawn) [Compound 77]	< 5.00
NC/C(=C\F)COc1cnc(N2CC[C@H](O)C2)nc1 [Compound 79]	< 5.00
NC/C(=C\F)COc1cccc2[nH]cnc12 [Compound 2, hydrochloride]	< 5.00

Which value of pIC50 has been reported for Cn1nccc1-c1ccc(OC/C(=C/F)CN)cc1 [Compound 48, hydrochloride] in the records?
< 5.00

###

Overview of reported IC50 across a group of compounds:
Test System: Human MAO-A (Homo sapiens, UniProt P21397)
Sequence (P21397 whole entry): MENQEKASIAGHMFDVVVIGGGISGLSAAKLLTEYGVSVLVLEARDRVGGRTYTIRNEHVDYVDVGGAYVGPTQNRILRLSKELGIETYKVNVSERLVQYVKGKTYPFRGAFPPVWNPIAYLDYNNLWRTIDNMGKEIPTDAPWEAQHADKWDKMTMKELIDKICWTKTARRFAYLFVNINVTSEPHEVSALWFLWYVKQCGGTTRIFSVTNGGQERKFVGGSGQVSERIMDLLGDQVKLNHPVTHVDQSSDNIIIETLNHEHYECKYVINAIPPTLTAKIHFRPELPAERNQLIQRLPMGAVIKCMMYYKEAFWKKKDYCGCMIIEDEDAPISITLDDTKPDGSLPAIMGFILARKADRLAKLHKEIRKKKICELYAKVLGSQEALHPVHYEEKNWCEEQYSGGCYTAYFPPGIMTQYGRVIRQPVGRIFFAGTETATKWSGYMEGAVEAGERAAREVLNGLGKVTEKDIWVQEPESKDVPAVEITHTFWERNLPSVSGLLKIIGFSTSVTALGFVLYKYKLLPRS
Method Notes: MAO-A inhibition (Amplex Red continuous fluorescence assay)
Format: biochemical
Assay Conditions: 30 min pre-incubation at room temp; substrate tyramine; read-out: Human MAO-A IC50
Structures can show the parent of a compound that is named as a salt.

Which value of IC50 has been reported for NC/C(=C\F)COc1ccc(-c2ncon2)cc1 [Compound 43, hydrochloride] in the records?
3 to 10 µM

Which value of IC50 has been reported for NC/C(=C\F)COc1ccc(-c2cocn2)cc1 [Compound 29, hydrochloride] in the records?
< 3 µM

Which value of IC50 has been reported for CC(C)(C)NC(=O)c1cn(CC(=CF)CN)c2ccccc12 [Compound 70] in the records?
< 3 µM

###

Test System: Human MAO-A (Homo sapiens)
Method Notes: MAO-A inhibition (Amplex Red continuous fluorescence assay)
Type: biochemical
Assay Conditions: 30 min pre-incubation at room temp; substrate tyramine; read-out: Human MAO-A IC50
Where a name gives a salt, the structure may show the parent alone.
Measurement Name: IC50

Completed entries (count: 3):
Molecule	Value Reported
NC/C(=C/F)COc1cccc2c1OCO2 [Compound 16, hydrochloride]	< 3 µM
NC/C(=C\F)COc1ccc(-c2nnn[nH]2)cc1 [Compound 51, hydrochloride]	> 10 µM
NC/C(=C\F)CNc1ccccc1 [Compound 3, hydrochloride]	> 10 µM

Continue with the molecule presented below.
Which value of IC50 has been reported for CCN(CC)C(=O)Nc1ccc(OC/C(=C/F)CN)cc1 [Compound 24, hydrochloride] in the records?
3 to 10 µM

###

Test System: UniProtKB P19801
Sequence (P19801 20-751): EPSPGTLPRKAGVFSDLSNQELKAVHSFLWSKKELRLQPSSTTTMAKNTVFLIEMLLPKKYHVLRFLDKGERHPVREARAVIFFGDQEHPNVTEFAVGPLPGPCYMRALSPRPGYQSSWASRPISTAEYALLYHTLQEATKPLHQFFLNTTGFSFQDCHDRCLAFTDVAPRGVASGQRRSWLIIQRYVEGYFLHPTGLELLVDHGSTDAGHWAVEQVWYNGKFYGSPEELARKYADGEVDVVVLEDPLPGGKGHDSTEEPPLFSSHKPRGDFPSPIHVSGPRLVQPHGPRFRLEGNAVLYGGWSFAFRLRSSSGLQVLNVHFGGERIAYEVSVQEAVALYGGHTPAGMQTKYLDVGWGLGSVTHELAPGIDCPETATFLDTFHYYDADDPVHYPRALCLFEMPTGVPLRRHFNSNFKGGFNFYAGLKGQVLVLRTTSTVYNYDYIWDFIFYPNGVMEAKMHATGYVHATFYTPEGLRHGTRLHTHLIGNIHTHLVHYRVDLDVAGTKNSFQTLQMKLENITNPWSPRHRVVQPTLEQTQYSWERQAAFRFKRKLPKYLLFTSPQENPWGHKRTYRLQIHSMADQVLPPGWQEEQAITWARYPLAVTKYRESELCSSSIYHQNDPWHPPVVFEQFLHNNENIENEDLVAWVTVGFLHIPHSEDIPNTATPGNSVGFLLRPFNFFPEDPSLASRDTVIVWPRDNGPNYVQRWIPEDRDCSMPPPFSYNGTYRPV
Method Notes: DAO inhibition (Amplex Red continuous fluorescence assay)
Format: biochemical
Assay Conditions: 30 min pre-incubation at room temp; substrate histamine; read-out: Human DAO IC50
pIC50: −log10 of the molar value. Counter-ions that a name gives are not always drawn.
Measurement Name: pIC50

Completed entries (count: 10):
Compound	Test System	pIC50
CC(C)(C)NC(=O)c1ccc(NC/C(=C\F)CN)cc1 [Compound 46, hydrochloride]	UniProtKB P19801	5.00 to 5.52
NC/C(=C/F)COc1cccc2scnc12 [Compound 9, hydrochloride]	UniProtKB P19801	< 5.00
NC/C(=C\F)CNc1ccccc1 [Compound 3, hydrochloride]	UniProtKB P19801	< 5.00
NC/C(=C\F)COc1ccc(-c2ncn[nH]2)cc1	UniProtKB P19801	> 5.52
NC/C(=C/F)COC(=O)Nc1ccccc1	UniProtKB P19801	> 5.52
CCNC(=O)N(C)c1ccc(OC/C(=C/F)CN)cc1 [Compound 23, hydrochloride]	UniProtKB P19801	< 5.00
NC/C(=C/F)Cn1ncc(-c2ccc(O)cc2)n1 [Compound 58, hydrochloride]	UniProtKB P19801	> 5.52
CCNC(=O)N(C)c1ccc(NC/C(=C\F)CN)cc1	UniProtKB P19801	5.00 to 5.52
NC/C(=C\F)CN1CCc2ccccc21 [Compound 62, hydrochloride]	UniProtKB P19801	> 5.52
NC/C(=C\F)CNC(=O)c1ccccc1 [Compound 21, hydrochloride]	UniProtKB P19801	< 5.00

Which value of pIC50 has been reported for "CO[C@H]1CCN(c2ncc(OC/C(=C/F)CN)cn2)C1" in the records?
> 5.52

Which value of pIC50 has been reported for NC/C(=C/F)COc1ccc(-c2cocn2)cc1 [Compound 30, hydrochloride] in the records?
> 5.52

Which value of pIC50 has been reported for NC/C(=C/F)COc1ccc(-c2ncccn2)cc1 [Compound 38, hydrochloride] in the records?
> 5.52

###

Test System: Human VAP-1 (Homo sapiens)
Method Notes: VAP-1 inhibition assay (Amplex Red continuous fluorescence assay)
Assay type: biochemical
Assay Conditions: 30 min pre-incubation at 37° C.; substrate benzylamine; read-out: Human VAP-1 IC50
pIC50: −log10 of the molar value. Structures can show the parent of a compound that is named as a salt.
Measurement Name: pIC50

Compound	pIC50
NC/C(=C\F)CN1CCc2ccccc21 [Compound 62, hydrochloride]	> 5.52
NC/C(=C/F)COc1cccc2scnc12 [Compound 9, hydrochloride]	> 5.52
CCNC(=O)N(C)c1ccc(NC/C(=C/F)CN)cc1 [Compound 66]	> 5.52
CCNC(=O)N(C)c1ccc(NC/C(=C\F)CN)cc1 [Compound 67]	> 5.52

Find pIC50 (Human VAP-1 (Homo sapiens)) for the entry NCC(=CF)CN1CCCCC1 (mixture of isomers) [Compound 12]
< 5.00

Find pIC50 (Human VAP-1 (Homo sapiens)) for the entry NC/C(=C\F)COc1cccc2[nH]cnc12 [Compound 2, hydrochloride]
5.00 to 5.52

Find pIC50 (Human VAP-1 (Homo sapiens)) for the entry CCOC(=O)Nc1ccc(OC/C(=C/F)CN)cc1 [Compound 13]
> 5.52

Find pIC50 (Human VAP-1 (Homo sapiens)) for the entry NC/C(=C\F)CNC1CCCCC1 [Compound 22]
< 5.00
